Listed substances paired with reported B. subtilis MIC
- Tested on: B. subtilis PY79
- condition set: PY79, 20 h
No end group written: not given here.
attribute measured: B. subtilis MIC (µM)

substance | system name | recorded measurement
H-MCFCFKAGPKICRGLQRKKKKFKYQTSFTKTGFGFLTKPKSPAR-NH2 (cysteines drawn unpaired) [AMP #10] | B. subtilis PY79 | 0.6
MYLKKFLALKNSLKKLSPFKCAVKSWLKKCAEVTFYSKLLGRRGKKDGN-NH2 (cysteines drawn unpaired) [AMP #6] | B. subtilis PY79 | 2.1
MLFGSRAKKYGKEAKQEKSFQYPKSSFVACKKKWKRSKHFFKTFKKKVS-NH2 [AMP #1] | B. subtilis PY79 | 0.8
MGWWFPPKTGNGAGKAFKKAAAAKWGGLFLKAAWFANKGEWGGGFPKGY-NH2 [AMP #9] | B. subtilis PY79 | 3.1
H-MCFFPRRKSKVKVKGGLCRLLFIFFKTTFCFKAKTKKEIKKGTGKKIVR-NH2 (cysteines drawn unpaired) [AMP #18] | B. subtilis PY79 | 3.1
H-MCFCRYRFFYRRRIRFFKWGPYFYVWFGFPFGRKAFFLSVFRRRFC-NH2 (cysteines drawn unpaired) [AMP #19] | B. subtilis PY79 | 8.4
MRNFFKKTRLKYKGKKELIKKSRAFGLKTKKRSGFFFPRALKYEEEFY-NH2 [AMP #7] | B. subtilis PY79 | 1.6
MNNRGPLGRRFKARRKWKKFVAGKMKKKRKRFKGFKKKGGFTPFVKKFV-NH2 [AMP #3] | B. subtilis PY79 | 0.8
MKKKKKGILKQNNKKKKYTLFNRMVVFLFLGFIMIIFVQKYKKVIYHK-NH2 [AMP #29] | B. subtilis PY79 | 6.3
MKQPSKTKTHFKYFLLFLKSVKKVAGFKKKKKKYHWRSYKEGSCFRKRT-NH2 [AMP #13] | B. subtilis PY79 | 1.6
MKLRRRLRTRMVALLVLGVLFLLMLFFIIFLRRMLMRRFRA-NH2 [AMP #26] | B. subtilis PY79 | 37.5
MEAFKKKPRLPLFKVKLTRFLERARGLGSYRIFEFFKKFGVKKFVSSLR-NH2 [AMP #15] | B. subtilis PY79 | 0.8

----------
- test method notes: in vitro
- condition set: human
No end group written: not given here.
Listed substances paired with reported CC50 at 24 h

substance | value modifier | CC50 at 24 h (µM)
MWIKWKKPRKWGRRLKKKEKEELGDYIYLYCKVYRLFGFLPYFISKKTA-NH2 [AMP #17] | = | 134
MRRKTPVKWKTFFKALKHKKKIFKKTFEKFKFLAKGPAFLKGFDQKLKS-NH2 [AMP #5] | = | 68.4
MEAFKKKPRLPLFKVKLTRFLERARGLGSYRIFEFFKKFGVKKFVSSLR-NH2 [AMP #15] | = | 30.7
MYLKKFLALKNSLKKLSPFKCAVKSWLKKCAEVTFYSKLLGRRGKKDGN-NH2 (cysteines drawn unpaired) [AMP #6] | = | 67.5
MKAKKWFESLFKTFFKKGKGIYPKSSFEKEKKTDKKKKFGGWVWFKK-NH2 [AMP #16] | = | 39.3
MGWWFPPKTGNGAGKAFKKAAAAKWGGLFLKAAWFANKGEWGGGFPKGY-NH2 [AMP #9] | = | 146
MAIRIIGRLARVRARVVARVRSRLLADDPPEDLLRVARRRKGRRWLFLS-NH2 [AMP #24] | = | 91.7
MKKKKKGILKQNNKKKKYTLFNRMVVFLFLGFIMIIFVQKYKKVIYHK-NH2 [AMP #29] | > | 250
